Reference source: the EternaBench riboswitch data

Tested on: MS2 coat protein
assayNotes: apparent Kd, MS2 coat protein; higher = weaker binding; RNA-MaP array
settings: designed as: ON switch for tryptophan; no ligand
Mark Criterion not met for apparent Kd values under 70 nM, and Criterion met for everything at or above.

Exercise: Could you tell me if the measured apparent Kd of CCUGACAUGAGGAUCACCCAUGUGUGAGCACGAGGACCGGUACGGCCGCCACUCGCGUUGCCGGCCGGACUAUCUGGCGAAGUCA reaches 70 nM or more?
Solution: Criterion not met

Exercise: Could you tell me if the measured apparent Kd of GUACCACAGUCGGCCGCCACUAAGUUGUAUUCCAGCAGGACGAAACAUGAGGAUCACCCAUGUCCUAGGACCGGGACUUCCGUCG reaches 70 nM or more?
Solution: Criterion not met

Exercise: Could you tell me if the measured apparent Kd of UCUGGUAUGACGGCCGCCACUAGAUCGUGAGAAGCCUGCAUACAUGAGGAUCACCCAUGUCUCACUAGGACCGGGUCAUUCCAAU reaches 70 nM or more?
Solution: Criterion not met

Exercise: Could you tell me if the measured apparent Kd of CCAUGGUUGACGGCCGCCACUCAUUAGUCUUUGAGGUUGGCACAUGAGGAUCACCCAUGUCUGCAGAGGACCGGGUCUCGCCACA reaches 70 nM or more?
Solution: Criterion not met

Exercise: Could you tell me if the measured apparent Kd of UCUCACAUGAGGAUCACCCAUGUGUGCGGUCGAGGACCGGUACGGCCGCCACUCGAAUCCUUCCGCGAGAAGAUUGUACGACGGC reaches 70 nM or more?
Solution: Criterion met

---

System: MS2 coat protein
assayNotes: apparent Kd, MS2 coat protein; higher = weaker binding; RNA-MaP array
settings: ligand present: flavin mononucleotide; designed as: OFF switch for flavin mononucleotide
Please go through the items and note down their apparent Kd.
Report as a plain number; the unit nM is understood.

Exercise: What value of apparent Kd has been recorded for this entry: CCGAACACUUAGAAGGAUUUAAUCUAUAAUUGAAUAGGAUAUAAGGCCUUACGUGCGAAUGAACACAUGAGGAUCACCCAUGUA
Solution: 12.6

Exercise: What value of apparent Kd has been recorded for this entry: ACAGGACUAGUAGGAUAUGCGCCGGUAGUACCCGCAGAAGGACUUUCACGGGUUAUUGUCACAUGAGGAUCACCCAUGUGAGGG
Solution: 13

Exercise: What value of apparent Kd has been recorded for this entry: UCGCUGUAAGAGAAGGGCUCUGCAUGAGCACAUGAGGAUCACCCAUGUAAGAUCCUAAAGUACGAGCAGGAUAUCUCCGAGUGG
Solution: 77.3

Exercise: What value of apparent Kd has been recorded for this entry: UAGUAACAUGAGGAUCACCCAUGUCAGGAUAUGAGGUCUACGGCAUAAGCGAAUCGGGUCAGAAGGGACAUAAC
Solution: 16.9

Exercise: What value of apparent Kd has been recorded for this entry: AGCGUGGAUAAAGGAUAUGUACCGGUAACUACAUGAGGAUCACCCAUGUCUUCAGGCCAAAACCGACAGAAGGUUACUUAUCGC
Solution: 20.7

Exercise: What value of apparent Kd has been recorded for this entry: CUGUUCGUAGGAUAUACUGAAACACGGGACAUUCUGAUUAGACAUGAGGAUCACCCAUGUAGAAGGACGCACGU
Solution: 16.9

Exercise: What value of apparent Kd has been recorded for this entry: GGUUCCGCUAAGGUGAAACAUGAGGAUCACCCAUGUCAAUCUGAGGAUAUUUAUCUCGACGAGGCAAAGAAGGCAGACUCGCGG
Solution: 14.8

---

System: MS2 coat protein
assayNotes: apparent Kd, MS2 coat protein; higher = weaker binding; RNA-MaP array; theophylline 2 mM where present
settings: ligand present: theophylline; designed as: ON switch for theophylline
Mark no for apparent Kd values under 60 nM, and yes for everything at or above.

Exercise: Could you tell me if the measured apparent Kd of CUCUGAGUGAGUAAUCACUCAGAGGCGGAUACCAGCGAGGUCCAUCGCCCUUGGCAGCCGAACAUGAGGAUCACCCAUGUCGGUA reaches 60 nM or more?
Solution: no

Exercise: Could you tell me if the measured apparent Kd of AUCGUACCUGAUGAUACCAGCAUGUGAUCGUAACAUGAGGAUCACCCAUGUGAUCAGUGAUGCCCUUGGCAGCAUGAUCGGUACA reaches 60 nM or more?
Solution: no

Exercise: Could you tell me if the measured apparent Kd of ACAUGAGGAUCACCCAUGUCACGGCACGAUACCAGCUGAUCCGGUGGCCCUUGGCAGCGUGACGUUUGGUCCCGCGGAUGACACG reaches 60 nM or more?
Solution: no

Exercise: Could you tell me if the measured apparent Kd of CUCGGUUGAUCCUAGCUGCCGAGAGGUGAUACCAGCAUCGAAAGAUGCCCUUGGCAGCACCAACAUGAGGAUCACCCAUGUAAUA reaches 60 nM or more?
Solution: yes

Exercise: Could you tell me if the measured apparent Kd of UGCACCAUAAUCAUGUUGGUGCUAGGUGAUACCAGCAUCGAAAGAUGCCCUUGGCAGCACCAACAUGAGGAUCACCCAUGUAAUA reaches 60 nM or more?
Solution: yes

Exercise: Could you tell me if the measured apparent Kd of AAUCUGUCGGGUGAUACCAGCCUCGGCGCAUCUCACGCUGAACAUGAGGAUCACCCAUGUGGCCCUUGGCAGCACAUGACAAAUC reaches 60 nM or more?
Solution: no

Exercise: Could you tell me if the measured apparent Kd of UUUGAGAUAACAGAUACCAGCGUGUUAUAAAACAUGAGGAUCACCCAUGUAGUGAUCAAGCGCCCUUGGCAGCUGGUAUUUUAGG reaches 60 nM or more?
Solution: yes

---

Test system: MS2 coat protein
assayNotes: apparent Kd, MS2 coat protein; higher = weaker binding; RNA-MaP array
settings: ligand present: flavin mononucleotide; designed as: ON switch for flavin mononucleotide
Mark criterion not met for apparent Kd values under 40 nM, and criterion met for everything at or above.

Exercise: Could you tell me if the measured apparent Kd of GACAGACAUGAGGAUCACCCAUGUGAUACAGGCGUAGGAUAUUCGUGAGGAUACAGAAAAGAAGAAGGACGGGAAG reaches 40 nM or more?
Solution: criterion not met

Exercise: Could you tell me if the measured apparent Kd of CGAUGACAUGAGGAUCACCCAUGUUGCGGUAUUCAAGGAUAUCCUGAGUUUUCAAGCAUUGGAGAAGGUGAUUUCG reaches 40 nM or more?
Solution: criterion not met

Exercise: Could you tell me if the measured apparent Kd of UACCGACAUGAGGAUCACCCAUGUACUGCGCUUGGAGGAUAUCGGCUUGAUUUUGCGCGUCGAGAAGGCCAACCUA reaches 40 nM or more?
Solution: criterion not met

Exercise: Could you tell me if the measured apparent Kd of CACGCUCACCAGAAGGCAGAGCAUAAAUGACAUGAGGAUCACCCAUGUACGCAGGAGAUCGGGUCUGAGGAUAUGGCAAUAGGC reaches 40 nM or more?
Solution: criterion not met

Exercise: Could you tell me if the measured apparent Kd of CACCCAACUAUACAUGAGGAUCACCCAUGUUGAAAGUGCAACAGAAGGCCCUACUAAUAUAGGAGGGAGGAUAUGUGAACCGAA reaches 40 nM or more?
Solution: criterion not met

Exercise: Could you tell me if the measured apparent Kd of ACAUGAUGCUAGAAGGGCACACAUGAGGAUCACCCAUGUCGAACGAUUCUUCGGGACUAUCGCAUGCAGGAUAUAGCUAAAUCG reaches 40 nM or more?
Solution: criterion not met

Exercise: Could you tell me if the measured apparent Kd of ACAUGAGGAUCACCCAUGUUAAAAGAAGAUAGCAUAUUGGGUAGAAGGUCACAUUUCCAUUAAGUGAAGGAUAUACCAUGAUUC reaches 40 nM or more?
Solution: criterion not met

Exercise: Could you tell me if the measured apparent Kd of UGCUUAAGACAGAAGGGCGUUCCGGAUGGUACCGCAGGAUAUGUCAACAUGAGGAUCACCCAUGUUACUAGCUAUGUUUCAAUU reaches 40 nM or more?
Solution: criterion not met

Exercise: Could you tell me if the measured apparent Kd of AUCGUGCCAAGAGGAUAUCACCAUUCAAUACCCACAUGAGGAUCACCCAUGUAUGCAGUGUUCCGUGAGAAGGCUUGCAUACCA reaches 40 nM or more?
Solution: criterion not met

Exercise: Could you tell me if the measured apparent Kd of UUGUGUACUCGAGGAUAUAAUGGACUACAUGAGGAUCACCCAUGUAUACGCCCACAGAGCGUCUUUUAGAAGGCGACGCAUCAU reaches 40 nM or more?
Solution: criterion not met

Exercise: Could you tell me if the measured apparent Kd of AUCCGUGCAGCAAAUGGAGUGACAUGAGGAUCACCCAUGUAUGAGGAUAUGGCUCCGCCAGGGUACCAGAAGGCAUAAGGGAGG reaches 40 nM or more?
Solution: criterion met

Exercise: Could you tell me if the measured apparent Kd of ACUAUACAUGAGGAUCACCCAUGUGGUCACAUAUGAGGAUAUAUGCGGCUGUCCCGGUCAAUAGAAGGCAUAUUUA reaches 40 nM or more?
Solution: criterion met

Exercise: Could you tell me if the measured apparent Kd of AUGUAGUCGGUAGGAUAUACGAGUCUGAUAACAGUAGAAGGACCGAGUACGGCUCCGCAGUACAUGAGGAUCACCCAUGUGAUC reaches 40 nM or more?
Solution: criterion met

Exercise: Could you tell me if the measured apparent Kd of CCUCGAACGGCAGGAUAUAUUGGUCAAAAUUCUAUAGAAGGGCCUCUCCCUGGAACAUGAGGAUCACCCAUGUGCGCACUUGUG reaches 40 nM or more?
Solution: criterion met

Exercise: Could you tell me if the measured apparent Kd of CAGACCCGGAAGAAGGAGGAGACAUAAACACGCCUAGGAUAUACGCCUGAAUAAACGUAAACAUGAGGAUCACCCAUGUCAAAC reaches 40 nM or more?
Solution: criterion not met

Exercise: Could you tell me if the measured apparent Kd of GGACAUUGUCCUAUUCACAUGAGGAUCACCCAUGUCACAACUAGAAGGGAGCGAUAACAAUUUCCUCAGGAUAUAGUUCGCGGC reaches 40 nM or more?
Solution: criterion not met

Exercise: Could you tell me if the measured apparent Kd of AAAACUUAUCAGAAGGAACGCACUCAACCGUUGUUAGGAUAUGAUCACCUAACAUGAGGAUCACCCAUGUUCACAGUAGGAGAC reaches 40 nM or more?
Solution: criterion met

Exercise: Could you tell me if the measured apparent Kd of CGUUCAGAUCAUGAUAACAUGAGGAUCACCCAUGUGGAAUAAUAGGAUAUGGAGAACAAAAUUAACCAGAAGGAUUAUAACAAA reaches 40 nM or more?
Solution: criterion met

Exercise: Could you tell me if the measured apparent Kd of AGUGCAAUAUAGAAGGCCCAAACAUGAGGAUCACCCAUGUAGGUGUCACUGGUAGUGAAGGCUCGGGAGGAUAUAUCAUCCACA reaches 40 nM or more?
Solution: criterion not met

Exercise: Could you tell me if the measured apparent Kd of UAGGACAUCCAGAAGGUAACCCAAUGAUAUAACACAUGAGGAUCACCCAUGUUGAAUCAGAGACUUAAGGAUAUGGUUGAUCUU reaches 40 nM or more?
Solution: criterion not met

Exercise: Could you tell me if the measured apparent Kd of UCUUUAAGCACAGGAUAUUGGUACAUGAGGAUCACCCAUGUGGAUCGUACUACCUCUCCACCGGACAAGAAGGGUGCGCCUACG reaches 40 nM or more?
Solution: criterion met

Exercise: Could you tell me if the measured apparent Kd of GGUUCUUGUUGACGUUUAUACAUGAGGAUCACCCAUGUUGCGCAGGAUAUUUCACAUUGAUAGAGAAAGAAGGGCGAUGUACGU reaches 40 nM or more?
Solution: criterion not met

Exercise: Could you tell me if the measured apparent Kd of CAAUAACAGAAAGGAUAUGGGCUCGAUACAUGAGGAUCACCCAUGUCUCCGUCAACGCUCAGUGCCCAGAAGGUUCCGCAGAAU reaches 40 nM or more?
Solution: criterion not met
